Give measured Kq (quenching rate constant) for each item. Keep answers brief.
- MEASUREMENT_TARGET: Human Serum Albumin (HSA) (Homo sapiens)
- Construct: HSA (≥96%) and six PFAS were all purchased from Aladdin Chemicals (Shanghai, China); purchased Aladdin Chemicals (Shanghai, China)
- PROTOCOL_TEXT: Fluorescence quenching of HSA by PFAS (Stern–Volmer, double logarithmic and Van't Hoff analysis)
- Format: binding
- CONDITION_CONTEXT: T = 298 K; τ0 taken as 10^−8 s

Worked cases, Kq (quenching rate constant) given:
>  <MOLECULE>
O=C(O)C(F)(F)OC(F)(F)C(F)(F)OC(F)(F)C(F)(F)OC(F)(F)F [PFO3DA, Perfluoro-3,6,9-trioxadecanoic Acid]

>  <MEASUREMENT_TARGET>
Human Serum Albumin (HSA) (Homo sapiens)

>  <VALUE>
1.05 ± 0.06 × 10^12 L·mol^−1·s^−1

$$$$
>  <MOLECULE>
O=C(O)C(F)(OC(F)(F)C(F)(OC(F)(F)C(F)(F)C(F)(F)F)C(F)(F)F)C(F)(F)F (stereo not drawn) [HFPO-TA]

>  <MEASUREMENT_TARGET>
Human Serum Albumin (HSA) (Homo sapiens)

>  <VALUE>
1.78 ± 0.09 × 10^12 L·mol^−1·s^−1

$$$$
>  <MOLECULE>
O=C(O)C(F)(F)C(F)(F)C(F)(F)C(F)(F)C(F)(F)C(F)(F)C(F)(F)C(F)(F)F [PFNA, Perfluorononanoic Acid]

>  <MEASUREMENT_TARGET>
Human Serum Albumin (HSA) (Homo sapiens)

>  <VALUE>
2.52 ± 0.10 × 10^12 L·mol^−1·s^−1

$$$$

// for each molecule below, give its Kq (quenching rate constant)
1. O=C(O)C(F)(F)C(F)(F)C(F)(F)C(F)(F)C(F)(F)C(F)(F)C(=O)O [DFSA, Dodecafluorosuberic Acid]
2. O=C(O)C(F)(F)C(F)(F)C(F)(F)C(F)(F)C(F)(F)C(F)(F)F [PFHpA, Perfluoroheptanoic Acid]
3. O=C(O)C(F)(F)C(F)(F)C(F)(F)C(F)(F)C(F)(F)C(F)(F)C(F)(F)F [PFOA, Perfluorooctanoic Acid]

Result:
1. 0.58 ± 0.06 × 10^12 L·mol^−1·s^−1
2. 0.69 ± 0.05 × 10^12 L·mol^−1·s^−1
3. 1.39 ± 0.07 × 10^12 L·mol^−1·s^−1

====

- MEASUREMENT_TARGET: HSA (Homo sapiens)
- Construct: HSA (≥96%) and six PFAS were all purchased from Aladdin Chemicals (Shanghai, China); purchased Aladdin Chemicals (Shanghai, China)
- PROTOCOL_TEXT: Circular dichroism (CD) spectrum, secondary structure of HSA
- CONDITION_CONTEXT: HSA:PFAS 1:18, 298 K; HSA alone 4.9
# binarize HSA secondary structure: β-Sheet: threshold 6% inclusive, high side TRUE, low side FALSE

>  <COMPOUND>
O=C(O)C(F)(F)C(F)(F)C(F)(F)C(F)(F)C(F)(F)C(F)(F)C(F)(F)C(F)(F)F

>  <ANSWER_LABEL>
TRUE

$$$$
>  <COMPOUND>
O=C(O)C(F)(F)C(F)(F)C(F)(F)C(F)(F)C(F)(F)C(F)(F)C(=O)O

>  <ANSWER_LABEL>
FALSE

$$$$
>  <COMPOUND>
O=C(O)C(F)(F)C(F)(F)C(F)(F)C(F)(F)C(F)(F)C(F)(F)F

>  <ANSWER_LABEL>
FALSE

$$$$
>  <COMPOUND>
O=C(O)C(F)(F)C(F)(F)C(F)(F)C(F)(F)C(F)(F)C(F)(F)C(F)(F)F

>  <ANSWER_LABEL>
TRUE

$$$$
>  <COMPOUND>
O=C(O)C(F)(OC(F)(F)C(F)(OC(F)(F)C(F)(F)C(F)(F)F)C(F)(F)F)C(F)(F)F (stereo not drawn)

>  <ANSWER_LABEL>
FALSE

$$$$

Then this compound:
Ask: Item O=C(O)C(F)(F)OC(F)(F)C(F)(F)OC(F)(F)C(F)(F)OC(F)(F)F with HSA secondary structure: β-Sheet of 6% or above?
Result: FALSE

====

- MEASUREMENT_TARGET: Human Serum Albumin (HSA) (Homo sapiens, UniProt P02768)
- Construct: HSA (≥96%) and six PFAS were all purchased from Aladdin Chemicals (Shanghai, China); purchased Aladdin Chemicals (Shanghai, China)
- Sequence (P02768 25-609): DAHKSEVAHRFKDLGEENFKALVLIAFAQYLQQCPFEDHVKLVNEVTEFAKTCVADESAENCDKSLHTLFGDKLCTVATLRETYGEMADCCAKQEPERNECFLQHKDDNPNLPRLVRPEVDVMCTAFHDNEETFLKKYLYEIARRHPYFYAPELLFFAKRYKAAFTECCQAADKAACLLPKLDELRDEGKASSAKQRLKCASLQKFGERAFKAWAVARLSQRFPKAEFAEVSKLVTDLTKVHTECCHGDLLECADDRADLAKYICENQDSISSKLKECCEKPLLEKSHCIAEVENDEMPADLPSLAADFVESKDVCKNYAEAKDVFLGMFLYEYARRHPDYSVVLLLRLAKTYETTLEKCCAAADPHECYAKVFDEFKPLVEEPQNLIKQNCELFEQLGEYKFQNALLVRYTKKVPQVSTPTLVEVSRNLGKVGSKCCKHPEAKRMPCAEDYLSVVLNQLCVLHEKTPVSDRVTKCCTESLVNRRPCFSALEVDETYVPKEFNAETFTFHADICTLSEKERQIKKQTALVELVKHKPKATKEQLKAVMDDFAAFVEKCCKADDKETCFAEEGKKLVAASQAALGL
- PROTOCOL_TEXT: Fluorescence quenching of HSA by PFAS (Stern–Volmer, double logarithmic and Van't Hoff analysis)
- Format: binding
READOUT_NAME: fluorescence quenching mechanism

Worked cases, fluorescence quenching mechanism given:
>  <MOLECULE>
O=C(O)C(F)(OC(F)(F)C(F)(OC(F)(F)C(F)(F)C(F)(F)F)C(F)(F)F)C(F)(F)F (stereo not drawn)

>  <fluorescence quenching mechanism>
mixed quenching

$$$$
>  <MOLECULE>
O=C(O)C(F)(F)C(F)(F)C(F)(F)C(F)(F)C(F)(F)C(F)(F)C(=O)O

>  <fluorescence quenching mechanism>
static quenching

$$$$
>  <MOLECULE>
O=C(O)C(F)(F)C(F)(F)C(F)(F)C(F)(F)C(F)(F)C(F)(F)C(F)(F)C(F)(F)F

>  <fluorescence quenching mechanism>
static quenching

$$$$
>  <MOLECULE>
O=C(O)C(F)(F)C(F)(F)C(F)(F)C(F)(F)C(F)(F)C(F)(F)C(F)(F)F

>  <fluorescence quenching mechanism>
mixed quenching

$$$$
>  <MOLECULE>
O=C(O)C(F)(F)C(F)(F)C(F)(F)C(F)(F)C(F)(F)C(F)(F)F

>  <fluorescence quenching mechanism>
static quenching

$$$$

Consider now this further molecule.
Ask: I would be grateful if you could share the reported fluorescence quenching mechanism for O=C(O)C(F)(F)OC(F)(F)C(F)(F)OC(F)(F)C(F)(F)OC(F)(F)F .
Result: static quenching

====

- MEASUREMENT_TARGET: HSA (Homo sapiens, UniProt P02768)
- Construct: HSA (≥96%) and six PFAS were all purchased from Aladdin Chemicals (Shanghai, China); purchased Aladdin Chemicals (Shanghai, China)
- Sequence (P02768 25-609): as above
- PROTOCOL_TEXT: 3D-EEM fluorescence spectra of HSA–PFAS
- CONDITION_CONTEXT: HSA 1 × 10^−6, PFAS 1.8 × 10^−5 mol·L^−1; HSA alone 673.66
Give measured 3D-EEM Peak A Intensity F for each item. Keep answers brief.
One number for each entry, in a.u..

Worked cases, 3D-EEM Peak A Intensity F given:
>  <COMPOUND>
O=C(O)C(F)(OC(F)(F)C(F)(OC(F)(F)C(F)(F)C(F)(F)F)C(F)(F)F)C(F)(F)F (stereo not drawn)

>  <MEASUREMENT_TARGET>
HSA (Homo sapiens, UniProt P02768)

>  <VALUE_UNIT>
a.u.

>  <VALUE>
499.16

$$$$
>  <COMPOUND>
O=C(O)C(F)(F)OC(F)(F)C(F)(F)OC(F)(F)C(F)(F)OC(F)(F)F

>  <MEASUREMENT_TARGET>
HSA (Homo sapiens, UniProt P02768)

>  <VALUE_UNIT>
a.u.

>  <VALUE>
525.07

$$$$

// for each compound below, give its 3D-EEM Peak A Intensity F
1. O=C(O)C(F)(F)C(F)(F)C(F)(F)C(F)(F)C(F)(F)C(F)(F)F
2. O=C(O)C(F)(F)C(F)(F)C(F)(F)C(F)(F)C(F)(F)C(F)(F)C(=O)O
3. O=C(O)C(F)(F)C(F)(F)C(F)(F)C(F)(F)C(F)(F)C(F)(F)C(F)(F)C(F)(F)F
4. O=C(O)C(F)(F)C(F)(F)C(F)(F)C(F)(F)C(F)(F)C(F)(F)C(F)(F)F

Result:
[656.89, 629.75, 418.74, 476.59]

====

- MEASUREMENT_TARGET: Human Serum Albumin (HSA) (Homo sapiens, UniProt P02768)
- Construct: HSA (≥96%) and six PFAS were all purchased from Aladdin Chemicals (Shanghai, China); purchased Aladdin Chemicals (Shanghai, China)
- PROTOCOL_TEXT: Fluorescence quenching of HSA by PFAS (Stern–Volmer, double logarithmic and Van't Hoff analysis)
- Assay type: binding
- CONDITION_CONTEXT: T = 304 K
READOUT_NAME: n (number of binding sites)
Answers are plain numbers.

Worked cases, n (number of binding sites) given:
>  <COMPOUND>
O=C(O)C(F)(F)OC(F)(F)C(F)(F)OC(F)(F)C(F)(F)OC(F)(F)F

>  <n (number of binding sites)>
1.33

$$$$
>  <COMPOUND>
O=C(O)C(F)(F)C(F)(F)C(F)(F)C(F)(F)C(F)(F)C(F)(F)F

>  <n (number of binding sites)>
1.42

$$$$
>  <COMPOUND>
O=C(O)C(F)(F)C(F)(F)C(F)(F)C(F)(F)C(F)(F)C(F)(F)C(F)(F)F

>  <n (number of binding sites)>
1.31

$$$$
>  <COMPOUND>
O=C(O)C(F)(F)C(F)(F)C(F)(F)C(F)(F)C(F)(F)C(F)(F)C(=O)O

>  <n (number of binding sites)>
0.98

$$$$
>  <COMPOUND>
O=C(O)C(F)(F)C(F)(F)C(F)(F)C(F)(F)C(F)(F)C(F)(F)C(F)(F)C(F)(F)F

>  <n (number of binding sites)>
1.18

$$$$

Consider now this further compound.
Ask: I would be grateful if you could share the reported n (number of binding sites) for O=C(O)C(F)(OC(F)(F)C(F)(OC(F)(F)C(F)(F)C(F)(F)F)C(F)(F)F)C(F)(F)F (stereo not drawn) .
Result: 1.78
